- System: HT-29
- ASSAY TEXT: NCI tumour cell line growth inhibition, 48 h
The source made the active and inactive calls. Cut-off read from the data, not from the text of the source: active = GI50 up to about 1.1 µM and inactive = higher.
ATTRIBUTE MEASURED: GI50

INSERT INTO assay_data (compound, attribute_measured, result) VALUES
  ('CCOC(=O)/C=C(/N=P(c1ccccc1)(c1ccccc1)c1ccccc1)C(F)(F)F', 'GI50', '> 10 µM (inactive)'),
  ('C=C1C(=O)O[C@@H]2/C=C(\C)CC/C=C(\C)CC[C@@]12O', 'GI50', '2.99 µM (inactive)'),
  ('O=C1OC(c2ccccc2)=N/C1=C\c1cccc2ccccc12', 'GI50', '> 100 µM (inactive)'),
  ('COC1/C(=C\C(C)=O)c2ccccc2N1C(C)=O (stereo not given)', 'GI50', '> 100 µM (inactive)'),
  ('N#Cc1c(-c2ccc([N+](=O)[O-])cc2)cc(-c2ccc(Nc3ccnc4cc(C(F)(F)F)ccc34)cc2)[nH]c1=O', 'GI50', '92.9 µM (inactive)'),
  ('c1cc(C[S+]2CCCC2)oc1C[S+]1CCCC1', 'GI50', '> 100 µM (inactive)'),
  ('Cc1ccc(-n2cc(-c3ccc(Cl)cc3)c3c(NNC(=S)NCc4ccccc4)ncnc32)cc1', 'GI50', '14.3 µM (inactive)'),
  ('CC(C)(Oc1ccc(Cl)cc1)C(=O)N(C(=O)N1CCCCC1)c1ccccc1', 'GI50', '8.34 µM (inactive)'),
  ('COC(=O)Cc1cc(=O)[nH]c2c1C(=O)CCC2', 'GI50', '> 100 µM (inactive)'),
  ('CCOC(=O)C(NS(=O)(=O)c1ccccc1)(C(F)(F)F)P(=O)(OCC(C)C)OCC(C)C (stereo not given)', 'GI50', '> 100 µM (inactive)');

----------
- System: Malme-3M
- ASSAY TEXT: NCI tumour cell line growth inhibition, 48 h
The source made the active and inactive calls. No stated cut-off is given here; in the data, active = GI50 up to about 1.1 µM and inactive = higher.
Outcome codes: t (active), f (inactive)

INSERT INTO assay_data (compound, label_value) VALUES
  ('CC(=O)c1sc(-c2nc(C)c(C(=O)/C=C\c3ccc(/C=C\C(=O)c4sc(-c5nc(C)c(C(C)=O)s5)nc4C)cc3)s2)nc1C', 'f'),
  ('CCN(CC)CCCC(C)Nc1ccnc2cc(Cl)ccc12 (stereo unspecified) [CHLOROQUINE PHOSPHATE]', 'f'),
  ('O=C(Nc1cccc([N+](=O)[O-])c1)C(=O)C(C(=O)c1ccccc1-c1ccccc1)C1OC(=O)c2ccccc21 (stereo unspecified)', 'f'),
  ('Nc1ccc(C(=O)N/C(=C\C=C\c2ccco2)c2nc3c(O)nc(S)nc3[nH]2)cc1', 'f'),
  ('COc1ccc(C[C@H](N)C(=O)N2C[C@@H](CO)C[C@@H](n3cnc4c(N(C)C)ncnc43)C2)cc1', 'f'),
  ('O=C(CSCC(=O)N/N=C\c1ccc(O)c(O)c1O)N/N=C\c1ccc(O)c(O)c1O', 'f'),
  ('O=C(/N=C1\SCCN1C(=O)C(C(F)(F)F)C(F)(F)F)C(C(F)(F)F)C(F)(F)F', 'f'),
  ('C=CCn1c(=O)c(C(=O)NC(=O)OCC)cn(C2CCCCC2)c1=O', 'f'),
  ('O=C1OC2CC=CC1C2 (stereo unspecified)', 'f'),
  ('CCCCc1cc2c(cc1O)CCC1C2CC[C@@]2(C)C1CC[C@@H]2O (stereo partly specified)', 'f'),
  ('NNC(=O)CCSc1ccccc1', 'f'),
  ('N#Cc1c(-c2ccc([N+](=O)[O-])cc2)cc(-c2ccc(Nc3ccnc4cc(C(F)(F)F)ccc34)cc2)[nH]c1=O', 'f'),
  ('O=C(O)CN1C(=O)c2ccc(NC(=O)C(=O)O)cc2S1(=O)=O', 'f'),
  ('CCO[C@H]1C[C@@H](c2ccccc2)[C@]2(C)C[C@H](C(=O)OC)ON2O1', 'f'),
  ('CN(C)/C=N/n1c2ccccc2c2ccccc21', 'f'),
  ('Cc1ccnc(NS(=O)(=O)c2ccc(N=[N+]=[N-])cc2)n1', 'f'),
  ('O=C1c2ccccc2C(=O)N1/N=C\c1ccc(Br)cc1', 'f'),
  ('C#C[C@]1(O)[C@@H](CO)O[C@@H](n2ccc(N)nc2=O)[C@@H]1O', 't'),
  ('CCOC(=O)C/C(=N\c1cc(C)on1)N(CC)CC.[O-][Cl+3]([O-])([O-])O', 'f'),
  ('CC(=O)Oc1c(C)n(CCCl)ccc1=O', 'f'),
  ('NC1=NC(=O)C(CC(=O)Nc2ccc([N+](=O)[O-])cc2[N+](=O)[O-])S1 (stereo unspecified)', 'f'),
  ('CC1=NN(c2ccccc2)C(=O)/C1=C\c1c(C)[nH]n(-c2ccccc2)c1=O', 'f'),
  ('Cc1cc(Cl)ccc1N1C(=O)C(=O)C(c2nc3ccccc3s2)/C(=N\NC(=O)c2ccccc2O)C1=O (stereo unspecified)', 'f'),
  ('Clc1ccccc1/C=c1\nc(-c2ccccc2)n2c1nc1ccccc12', 'f'),
  ('COc1cc2cc(C(=O)N3CC(CCl)c4ccc([N+](C)(C)Cc5ccc([N+](=O)[O-])cc5)cc43)[nH]c2c(OC)c1OC (stereo unspecified)', 'f'),
  ('Cc1nc2ccc(N)cc2nc1O', 'f'),
  ('CCOC(=O)c1nc2ccc(C(F)(F)F)cc2nc1Nc1ccc(OC)cc1', 'f'),
  ('CSCCC(NCc1c(O)ccc2c(-c3ccccc3)cc(=O)oc12)C(=O)O (stereo unspecified)', 'f'),
  ('COC(=O)c1cc2c(cc1Cl)Sc1nnc(Nc3ccccc3)n1S2(=O)=O', 'f'),
  ('Nc1ncnc2c1nnn2C1OC(CO)C(O)C1O (stereo unspecified)', 'f'),
  ('O=c1[nH]nc(Cc2ccccc2)n1N=C1CCCCC1', 'f'),
  ('CC(=O)NC(CCCCNC(=O)OC(C)(C)C)C(=O)O (stereo unspecified)', 'f'),
  ('CC(=O)Nc1ccc2oc(=O)c3ccccc3c2c1', 'f'),
  ('CC1CC(C)CC(NC2=NCCO2)C1 (stereo unspecified)', 'f'),
  ('COc1ccc(CNc2nc(NCc3ccc(OC)cc3)nc(NC3CCCCC3)n2)cc1', 't'),
  ('COC(=O)Nc1nc2cc(Oc3ccc4nc(NC(=O)OC)[nH]c4c3)ccc2[nH]1', 't'),
  ('Cn1c(=O)oc2cc(C(O)CN3CCN(Cc4ccc5c(c4)OCO5)CC3)ccc21 (stereo unspecified)', 'f'),
  ('CCCCOP(=O)(OCCCC)C(NS(=O)(=O)c1ccccc1)(C(=O)OCC)C(F)(F)F (stereo unspecified)', 'f'),
  ('CC(=O)NC1C(OCc2ccccc2)OC(CO)C(O)C1OCC(=O)N1CCCC1C(=O)NC(CCC(=O)NCCCCCNc1c2ccccc2nc2cccc([N+](=O)[O-])c12)C(N)=O (stereo unspecified)', 't'),
  ('C/C=C(/C)C(=O)O[C@@H]1CCN2CC[C@H](COC(=O)/C(=C/C)CO)C12 (stereo partly specified)', 'f'),
  ('CCSCN(C)c1nc(N(C)C)nc(N(C)C)n1', 'f');

----------
- Test system: MDA-MB-435
- ASSAY TEXT: NCI tumour cell line growth inhibition, 48 h
Active and inactive are the calls of the source. Cut-off read from the data, not from the text of the source: active = GI50 up to about 1.1 µM and inactive = higher.
Let's look at some molecules and their measured GI50.
ATTRIBUTE MEASURED: GI50

INSERT INTO assay_data (molecule, result) VALUES
  ('CCCCCCC(CCl)c1sc(-c2csc(CCNC(=O)OC(C)(C)C)n2)nc1C(=O)OC (stereo unspecified)', '12.5 µM (inactive)'),
  ('Cc1ccc(/C=C2\CN(C)CC3C2=NN(c2ccccc2)C3c2ccc(C)cc2)cc1 (stereo unspecified)', '> 100 µM (inactive)'),
  ('Cc1ccc(S(=O)(=O)NC(CCC(=O)NN)C(=O)NN)cc1 (stereo unspecified)', '> 100 µM (inactive)'),
  ('NCC(=O)C(O)C(O)C(O)CO (stereo unspecified)', '> 100 µM (inactive)'),
  ('CO/C(=N\N=C\c1ccc(Cl)cc1Cl)c1ccncc1', '3.66 µM (inactive)'),
  ('COc1ccc(CNc2nc(NCc3ccc(OC)cc3)nc(NC(C)C)n2)cc1', '3.1 µM (inactive)');

----------
- Test system: HOP-92
- ASSAY TEXT: NCI tumour cell line growth inhibition, 48 h
Active and inactive are the calls of the source. Cut-off read from the data, not from the text of the source: active = GI50 up to about 1.1 µM and inactive = higher.
Labels: label 1 for active, label 0 for inactive

INSERT INTO results (compound, label_value) VALUES
  ('Cc1cc(O)c2c3c(ccc2c1)C(=O)c1c(O)cccc1C3=O', 'label 0'),
  ('C/C(=N\N(C)C)C(CN(C)C)C(c1ccccc1)c1c(O)c2ccccc2oc1=O (stereo not given)', 'label 0'),
  ('O=C1OC2CC=CC1C2 (stereo not given)', 'label 0'),
  ('CCCCOCOc1ccccc1P1(=O)COc2ccccc2OC1', 'label 0'),
  ('CC(C)(C)[Si](C)(C)OCC1OC(n2ccc(=O)[nH]c2=O)C(O[Si](C)(C)C(C)(C)C)[C@]12O[C@@H]2CO (stereo not given in full)', 'label 0'),
  ('CCNC(=O)C(C)C1CCC2(C)C=CC(=O)C(C)=C2C1O (stereo not given)', 'label 0'),
  ('O=C(NCCCCCCNC(=O)n1cc(F)c(=O)[nH]c1=O)NCCCOCCOCCOCCOCCOCCOCCOCCOCCOCCOCCOCCOCCOCCOCCOCCOCCOCCOCCOCCOCCOCCCNC(=O)C(O)C(O)C(O)C(O)CO (stereo not given)', 'label 0'),
  ('COc1ccc(C[C@H](N)C(=O)N2C[C@@H](CO)C[C@@H](n3cnc4c(N(C)C)ncnc43)C2)cc1', 'label 0'),
  ('C=CCC1CC(n2cc(C)c(=O)[nH]c2=O)OC1CO[Si](C)(C)C(C)(C)C (stereo not given)', 'label 0'),
  ('Cc1c(C)c(S(=O)(=O)N(CCCCCN)OCCCN)c(C)c2c1OC(C)(C)CC2', 'label 0'),
  ('O=c1[nH]nc(Cc2ccccc2)n1N=C1CCCCC1', 'label 0'),
  ('CCOC(=O)c1cc2c(OC(C)=O)ccc(OC(C)=O)c2s1', 'label 0'),
  ('COC(=O)C(Cc1c[nH]c2ccccc12)NC1=Nc2ccncc2S(=O)(=O)N1c1cccc(OC(C)C)c1 (stereo not given)', 'label 0'),
  ('COc1ccc2c(c1)[C@@]13CCN4CC5=CCO[C@H]6CC(=O)N2[C@H]1[C@H]6[C@H]5C[C@H]43', 'label 0'),
  ('COCOc1cc(OC)ccc1C/C=N/O', 'label 0'),
  ('CCN(CC)CCCC(C)Nc1ccnc2cc(Cl)ccc12 (stereo not given) [CHLOROQUINE PHOSPHATE]', 'label 0'),
  ('COc1cc2c(cc1O)NC(=O)[C@@H]1C[C@@H](O)CN1C2=O', 'label 0'),
  ('CC1(SCC(N)C(=O)O)CC(=O)NC1=O (stereo not given)', 'label 0'),
  ('Nc1ccc(C(=O)N/C(=C\C=C\c2ccco2)c2nc3c(O)nc(S)nc3[nH]2)cc1', 'label 0'),
  ('NC1CC(=O)c2ccccc21 (stereo not given)', 'label 0'),
  ('C/C=C/[C@H](O[Si](C)(C)C(C)(C)C)[C@@H](O)/C=C/C(=O)OCC', 'label 0'),
  ('Clc1ccccc1/C=c1\nc(-c2ccccc2)n2c1nc1ccccc12', 'label 0'),
  ('CC(C)[C@](O)(C(=O)OCC1CC[N+]2([O-])CC[C@@H](O)C12)[C@H](C)O (stereo not given in full)', 'label 0'),
  ('NC(=O)NOCC1NC(=O)NC1=O (stereo not given)', 'label 0'),
  ('CC(=O)NC(CS/N=N/c1[nH]cnc1C(N)=O)C(=O)O (stereo not given)', 'label 0'),
  ('N#CN=C(NCc1ccccc1)NCc1ccccc1', 'label 0'),
  ('CCCC(=O)Nc1cc(/C=C/C(=O)N2CC(CCl)c3c2cc(O)c2[nH]cc(C)c32)n(C)c1 (stereo not given)', 'label 1'),
  ('Cc1c(-c2ccc(O)c(O)c2)oc(=O)c2c(O)cccc12', 'label 0'),
  ('CC1CC(C)CC(NC2=NCCO2)C1 (stereo not given)', 'label 0'),
  ('O=c1oc2cccnc2n1CCN1CCN(c2ccc(Oc3ccccc3)cc2)CC1', 'label 0'),
  ('Cc1cc(C)c(P2C(=C(O[Si](C(C)C)(C(C)C)C(C)C)C(C)(C)C)C2(c2ccccc2)c2ccccc2)c(C)c1 (stereo not given)', 'label 0'),
  ('O=C(COc1ccc(OCC(=O)N2C(=O)CN(c3ccc(Cl)cc3)C2=S)cc1)N1C(=O)CN(c2ccc(Cl)cc2)C1=S', 'label 0'),
  ('c1ccc(-c2nnc(CCCCCCCCc3nnc(-c4ccccc4)o3)o2)cc1', 'label 0'),
  ('O=C1OC(c2ccccc2)=N/C1=C\c1cccc2ccccc12', 'label 0'),
  ('CSCCC(NOC(=O)Cc1ccccc1)P(=O)(O)c1ccccc1 (stereo not given)', 'label 0'),
  ('Cc1ccc([N+](=O)[O-])cc1S(=O)(=O)Nc1ccc(C2=NN(C(=O)c3ccccc3)C(c3ccccc3)C2)cc1 (stereo not given)', 'label 0'),
  ('CC(=O)Oc1ccc2[nH]c3c(C)c4cccc-4ccc3c2c1', 'label 0'),
  ('CCN(CC)CCCNc1c2cc(OC)ccc2nc2cccc([N+](=O)[O-])c12', 'label 1'),
  ('COc1ccc2c(c1)c1c(n2CCN2CCCCC2)-c2cccc(OC)c2CC1', 'label 0'),
  ('COc1ccc2c(C(=O)O)cc3cc(OC)c(OC)cc3c2c1', 'label 0');
